System: Mycobacterium tuberculosis
Assay overview: Antitubercular activity against Mycobacterium tuberculosis H37Rv after 7 days
Type: functional, organism-based
Particulars: 168 h
Readout name: pIC50
Just so you know, pIC50 here is -log10 of the concentration in molar units; reply with that number alone.

Here is how some molecules turned out for pIC50.
# Molecule, Readout name, Numeric readout
rows = [
    ("O=C(c1ccccc1)N1CCN(C2c3ccccc3-c3ccccc32)CC1", "pIC50", 7.05),
    ("Cc1ccc(C(=O)N2CCN(c3cccc(Cl)c3)CC2)cc1C", "pIC50", 6.00),
    ("CC(C)Cc1ccc(Oc2ccc(Cl)cc2Cl)c(O)c1", "pIC50", 7.02),
    ("Oc1cc(CCc2ccccc2)ccc1Oc1ccc(Cl)cc1Cl", "pIC50", 7.68),
]

Continue with the next molecule.
Name the reported pIC50 value associated with the molecule O=C(Nc1cc(Br)cc(C(F)(F)F)c1)C1CC(=O)N(C2CCCCC2)C1 (stereo not given) 6.07

---

Tested on: Mycobacterium tuberculosis
Assay overview: Antitubercular activity against Mycobacterium tuberculosis H37Rv after 7 days
Type: functional, organism-based
Particulars: 168 h
molecules and their reported IC50
State the answer as a number, implicitly in nM.

Record excerpt, results attached:
# Molecule, Value unit, Numeric readout
records = [
    ("CN(Cc1c2ccccc2cc2ccccc12)C(=O)C1CC(=O)N(C2CCCCCCC2)C1 (stereo unspecified)", "nM", 320),
    ("CN(Cc1c2ccccc2cc2ccccc12)C(=O)C1CC(=O)N(C2CC3CCC2C3)C1 (stereo unspecified)", "nM", 460),
    ("CN(C(=O)C1CC(=O)N(C2CCCCCC2)C1)c1cc(-c2ccccc2)c(O)c(-c2ccccc2)c1 (stereo unspecified)", "nM", 360),
    ("CCCCc1ccc(Oc2ccc(Cl)cc2Cl)c(O)c1", "nM", 91),
    ("CCCCCCc1ccc(Oc2ccccc2)c(O)c1", "nM", 11),
    ("CCCCCc1ccc(Oc2ccccc2)c(O)c1", "nM", 17),
    ("Oc1cc(Cc2ccccc2)ccc1Oc1ccc(Cl)cc1Cl", "nM", 51),
    ("Oc1cc(CCCc2ccccc2)ccc1Oc1ccc(Cl)cc1Cl", "nM", 50),
    ("Cc1ccc(C(=O)N2CCN(C3c4ccccc4-c4ccccc43)CC2)cc1", "nM", 400),
    ("CCCCCCCCc1ccc(Oc2ccccc2)c(O)c1", "nM", 5),
]

Kindly state the measured IC50 obtained for CCCCCCCCCCCCCCc1ccc(Oc2ccccc2)c(O)c1 with Mycobacterium tuberculosis. 150
